Entry source: the supplement of paper PMC5412046

# Test system: SB.mhdgc-1
# assay-details: AC50 for growth inhibition (viability) (log10 M); higher = less potent
# condition-context: SB.mhdgc-1 (hereditary c.1380delA CDH1 gastric cancer)
observable: AC50 for growth inhibition (log10 M)
Please respond with just the number, no unit label.

These solved cases illustrate the format of a correct answer.
molecule: Cc1cc(O)c2c3c4c(cc(O)c13)C(C)(C)C(=O)c1c(O)cc(O)c(c1-4)C2=O [Resistomycin]
numeric-value: -5.13
--
molecule: CC(C)n1cnc2c(NCCCCCCNC(=O)OC(C)(C)C)nc(NCCO)nc21 [CK59]
numeric-value: -4.93

Record summary for CC1=C(/C=C/C(C)=C/C=C/C(C)=C/C=C/C=C(C)/C=C/C=C(C)/C=C/C2=C(C)CCCC2(C)C)C(C)(C)CCC1 [beta-Carotene] : reported AC50 for growth inhibition (log10 M) = -5.13

====

# System: SB.msgc-1
# assay-details: AC50 for growth inhibition (viability) (log10 M); higher = less potent
# condition-context: SB.msgc-1 (sporadic gastric cancer)
observable: AC50 for growth inhibition (log10 M)
Lab note: write the figure by itself, no unit.

# count of solved cases: 2
compound: CC(C)(C)c1cc(C(=O)O)c(NC(=O)Nc2ccc3[nH]ncc3c2)s1 [S6K-18]
target-under-test: SB.msgc-1
AC50 for growth inhibition (log10 M): -4.88
//
compound: Cc1ncc(-c2ccnc(Nc3ccc([S+](C)(=O)[O-])cc3)n2)n1C(C)C [AZD-5438]
target-under-test: SB.msgc-1
AC50 for growth inhibition (log10 M): -5.78

Bench note, SB.msgc-1: entry CCOc1cc2c(c(F)c1OCC)C(=N)N(CC(=O)c1cc(N3CCOCC3)c(OC)c(C(C)(C)C)c1)C2 [E5555] , its AC50 for growth inhibition (log10 M) = -4.68

For the compound NC(=O)N1CCC(CC(=O)N2CCC([C@H]3c4ncc(Br)cc4CCc4cc(Cl)cc(Br)c43)CC2)CC1 [Lonafarnib] , the measured AC50 for growth inhibition (log10 M) on SB.msgc-1 was -4.78

Record CC(C)c1cc(C(=O)N2Cc3ccc(CN4CCN(C)CC4)cc3C2)c(O)cc1O has SB.msgc-1 AC50 for growth inhibition (log10 M) equal to -6.78

AC50 for growth inhibition (log10 M) for SB.msgc-1 with input O=C(CCCCCCC(=O)Nc1ccc([C@H]2O[C@@H](CSc3nc(-c4ccccc4)c(-c4ccccc4)o3)C[C@@H](c3ccc(CO)cc3)O2)cc1)NO [Tubacin] equals -4.58

Item CC(=O)O[C@H]1C[C@@H]2CC[C@@H]3[C@H](CC[C@@]4(C)[C@H]3C[C@H]([N+]3(C)CCCCC3)[C@@H]4OC(C)=O)[C@@]2(C)C[C@@H]1[N+]1(C)CCCCC1 [Pancuronium bromide] ; assay system SB.msgc-1; AC50 for growth inhibition (log10 M) reported as -5.53

Observed AC50 for growth inhibition (log10 M) on SB.msgc-1, entry C=CCNc1c(O)cc2c(O)c1C[C@@H](C)C[C@H](OC)[C@H](O)[C@@H](C)/C=C(/C)[C@H](OC(N)=O)[C@@H](OC)/C=C\C=C(\C)C(=O)N2 [Retaspimycin] , equals -7.48

The measured AC50 for growth inhibition (log10 M) that COc1ccc(-c2ccc3ncc4c(c3c2)n(-c2ccc(N3CCNCC3)c(C(F)(F)F)c2)c(=O)n4C)cn1 [NVP-BGT226] showed for SB.msgc-1 is -5.58

Given the compound CCCC1OC2C[C@H]3[C@@H]4CCC5=CC(=O)C=C[C@]5(C)[C@H]4C(O)C[C@]3(C)[C@]2(C(=O)CO)O1 (some centres not stated) [Budesonide] and test system SB.msgc-1, the measured AC50 for growth inhibition (log10 M) is -4.68

Value (AC50 for growth inhibition (log10 M), SB.msgc-1) for record CNC(=O)c1ccc2c(c1)NC(=O)/C2=C(\Nc1cccc(CN(C)C)c1)c1ccccc1 = -4.93

Value (AC50 for growth inhibition (log10 M), SB.msgc-1) for record COc1ccc2c(c1)CC[C@@H](CN(C)CC(=O)O)[C@H]2c1ccccc1 = -5.63
